All values here come from PubChem BioAssay (NCATS).

Assay: qHTS assay for small molecule agonists of the antioxidant response element (ARE) signaling pathway measured by Nrf2-dependant transcriptional activity (AID 720636);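 also: HepG2 cells with an ARE-driven luciferase reporter; % of control where 0% means no effect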
Settings: ARE-luc HepG2, Nrf2 luciferase reporter, 16 h; series mostly up to 92.4 µM
Inconclusive results are not listed. Activity calls are given as the source filed them. Calls follow the shape of the dose curve; as a rule, active = well fitted activation curve with a large enough effect in the repeat runs; inconclusive = weak or mixed curves; inactive = flat fitted curve, though single readings scatter.
experimentalReadout: outcome

Challenge: Tell me outcome reported for Cn1c(=O)[nH]c(=O)n(C2CCC(O)CC2)c1=O (centres undefined)
Response given: inactive

Challenge: Read off the recorded outcome for CN(C)c1nc(=O)n(C2CCC(O)CC2)c(=O)n1C (centres undefined)
Response given: inactive

Challenge: Supply reported outcome belonging to this molecule: `COC(OC)(C(=O)c1ccccc1)c1ccccc1`
Response given: inactive

Challenge: Answer with the recorded outcome of `CCCCCCCCCCCCCCN` only.
Response given: inactive

Challenge: Give a short answer stating reported outcome for CO[Si](CCCOCC1CO1)(OC)OC (centres undefined) .
Response given: inactive

Others:
Challenge: State, in one line, measured outcome of `CCc1c(C(=O)O)c(=O)cnn1-c1ccc(Cl)cc1`
Response given: inactive

Challenge: Name the recorded outcome of the molecule listed here: `CCCCOCCOCCOC(=O)CCCCC(=O)OCCOCCOCCCC`
Response given: inactive

Challenge: Quick one: give measured outcome for `CC(C)c1ccc(C(C)C)cc1`
Response given: inactive

Challenge: Please report outcome for the following molecule: `Oc1ccc(C(c2ccc(O)cc2)C(Cl)(Cl)Cl)cc1`
Response given: inactive

----------
Test: qHTS assay for small molecule antagonists of retinoid X receptor alpha signaling (AID 588546);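 also: cells stimulated with 9-cis-retinoic acid as agonist; % is scaled to controls: 0 for no effect and ±100 for the full control effect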
Settings: HEK293T RXRa-UAS-bla, beta-lactamase ratio, antagonist mode; measured here: W530 green channel, cytotoxicity proxy
Results filed as inconclusive are left out.
experimentalReadout: max response (%)
Response body: numeric value in %, unit text excluded.

Solved entries:
Challenge: Consider the compound `C=CC(=O)OCCOc1ccccc1` and give its recorded max response.
Response given: -0.297

Challenge: Kindly indicate its recorded max response. Item: `COC(=O)c1ccc(C(=O)OC)cc1`
Response given: -0.742

Challenge: Consider the compound `O=C(O)C(c1ccc(Cl)cc1)c1ccc(Cl)cc1` . State its measured max response.
Response given: -10.2

Challenge: State, in one line, measured max response of O=C1NC(=O)C(Cc2ccc(OCCN3COc4ccccc4C3=O)cc2)S1 (stereo not drawn)
Response given: 33.2

Challenge: Supply max response value. Item: CC(C)C(=O)OCC(C)(C)C(O)C(C)C (stereo not drawn)
Response given: -13.9

Now for another entry.
Challenge: Fill in reported max response for this entry: `OC1CCCCCCCCCCC1`
Response given: -1.99

----------
Test system: ATS189
Test: qHTS profiling for inhibitors of Plasmodium falciparum proliferation (AID 504749); also: nearly all actives have a fitted effect of over 60% in size
Conditions: P. falciparum in erythrocytes, SYBR Green DNA, 72 h; series mostly up to 28.7 µM
Results filed as inconclusive are left out. Active and inactive are the calls of the source. Calls follow the shape of the dose curve; as a rule, active = well fitted inhibition curve with a large enough effect; inconclusive = small, poorly fitted or top-dose-only effect; inactive = flat fitted curve, though single readings scatter.
Entry note: the call must match one of active, inactive

Record excerpt, results attached:
Challenge: Recorded test outcome, item CNCC(=O)NC(CCCN=C(N)N)C(=O)NC(C(=O)NC(Cc1ccc(O)cc1)C(=O)NC(C(=O)NC(Cc1cnc[nH]1)C(=O)N1CCCC1C(=O)NC(C)C(=O)O)C(C)C)C(C)C (configuration not stated)
Response given: inactive

Challenge: Please let me know the test result on file for NC(=O)CCC1NC(=O)C(Cc2ccccc2)NC(=O)C(Cc2ccc(O)cc2)NC(=O)CCSSCC(C(=O)N2CCCC2C(=O)NC(CCCN=C(N)N)C(=O)NCC(N)=O)NC(=O)C(CC(N)=O)NC1=O (configuration not stated) .
Response given: inactive

Challenge: Which outcome was entered for the molecule O=C(OCC1OC(OC(=O)c2cc(O)c(O)c(OC(=O)c3cc(O)c(O)c(O)c3)c2)[C@@H](OC(=O)c2cc(O)c(O)c(OC(=O)c3cc(O)c(O)c(O)c3)c2)C(OC(=O)c2cc(O)c(O)c(OC(=O)c3cc(O)c(O)c(O)c3)c2)C1OC(=O)c1cc(O)c(O)c(OC(=O)c2cc(O)c(O)c(O)c2)c1)c1cc(O)c(O)c(OC(=O)c2cc(O)c(O)c(O)c2)c1 (some centres not stated) in this test?
Response given: active

Challenge: Outcome logged for CC(C)C[C@H](NC(=O)[C@@H](Cc1c[nH]c2ccccc12)NC(=O)[C@@H](Cc1ccc(O)cc1)NC(=O)[C@@H](CO)NC(=O)[C@@H](Cc1c[nH]c2ccccc12)NC(=O)C(Cc1cnc[nH]1)NC(=O)C1CCC(=O)N1)C(=O)N[C@@H](CCCN=C(N)N)C(=O)N1CCC[C@@H]1C(=O)NCC(N)=O (some centres not stated) in this assay:
Response given: inactive

Challenge: What call does the record list for `O=C(O)c1ccccc1-c1c2cc(Br)c(=O)c(Br)c-2oc2c(Br)c(O)c(Br)cc12` ?
Response given: inactive

Kindly review the next molecule as well.
Challenge: Test call for this molecule, please: CCC(Oc1ccccc1)C(=O)NC1C(=O)N2C1SC(C)(C)C2C(=O)O (configuration not stated)
Response given: inactive

----------
Catalogue of max response values
Experiment: qHTS assay for cell viability of HEK293 cells (AID 743288); also: % is scaled to controls: 0 for no effect and ±100 for the full control effect; nearly all actives have a fitted effect of over 50% in size
Conditions: ATP luminescence (CellTiter-Glo), 18 h; stronger effect = lower value
Inconclusive results are not listed.
Give the number; % is assumed, so skip it.

Record excerpt, results attached:
Challenge: Look up max response of C[N+](C)(C)CC(O)CCl (stereo not drawn) and report it.
Response given: -11.6

Challenge: # return recorded max response for entry `Cn1c(=O)[nH]c(=O)n(C2CCCCC2)c1=O`
Response given: -7.06

Challenge: Give me measured max response, please, for this compound: `CC(C)C[C@H](NC(=O)OCC1c2ccccc2-c2ccccc21)C(=O)O`
Response given: -22.2

Challenge: Fill in reported max response for this entry: `CCCCN(CCCC)CCCC`
Response given: -10.1

Challenge: Recall and state the measured max response for `Nc1ccc(Nc2ccccc2)cc1` .
Response given: -17.7

Now consider a different compound.
Challenge: Using the record for `O=c1[nH]c(=O)c2[nH]cnc2[nH]1` , state its measured max response.
Response given: -12.8

----------
Tested on: CP305
Assay: qHTS profiling for inhibitors of Plasmodium falciparum proliferation (AID 504749); also: nearly all actives have a fitted effect of over 60% in size
Conditions: P. falciparum in erythrocytes, SYBR Green DNA, 72 h; series mostly up to 28.7 µM
Records with an inconclusive call do not appear. Calls of active or inactive are those of the source. Calls follow the shape of the dose curve; as a rule, active = well fitted inhibition curve with a large enough effect; inconclusive = small, poorly fitted or top-dose-only effect; inactive = flat fitted curve, though single readings scatter.
Could you please pick one outcome from this set? True (active), False (inactive)

These solved cases illustrate the format of a correct answer.
Challenge: What classification did `Cn1cc(O)nc1NC(=O)Nc1cccc(Cl)c1` end up with in this test?
Response given: False

Challenge: What classification did CC(C)C[C@H](NC(=O)[C@@H](Cc1c[nH]c2ccccc12)NC(=O)[C@@H](Cc1ccc(O)cc1)NC(=O)[C@@H](CO)NC(=O)[C@@H](Cc1c[nH]c2ccccc12)NC(=O)C(Cc1cnc[nH]1)NC(=O)C1CCC(=O)N1)C(=O)N[C@@H](CCCN=C(N)N)C(=O)N1CCC[C@@H]1C(=O)NCC(N)=O (stereo partly drawn) end up with in this test?
Response given: False

Challenge: Test call for this compound, please: NC(=O)CCC1NC(=O)C(Cc2ccccc2)NC(=O)C(Cc2ccc(O)cc2)NC(=O)CCSSCC(C(=O)N2CCCC2C(=O)NC(CCCN=C(N)N)C(=O)NCC(N)=O)NC(=O)C(CC(N)=O)NC1=O (stereo not drawn)
Response given: False

Challenge: Hi, sorry to bother you, what did the test record for CC(N)C(=O)NCC(=O)NC1CSSCC(C(=O)O)NC(=O)C(CO)NC(=O)C(C(C)O)NC(=O)C(Cc2ccccc2)NC(=O)C(C(C)O)NC(=O)C(CCCCN)NC(=O)C(Cc2c[nH]c3ccccc23)NC(=O)C(Cc2ccccc2)NC(=O)C(Cc2ccccc2)NC(=O)C(CC(N)=O)NC(=O)C(CCCCN)NC1=O (stereo not drawn) ?
Response given: False

Challenge: Please state the recorded outcome for this compound: CCC1NC(=O)C(NC(=O)c2ncccc2O)C(C)OC(=O)C(c2ccccc2)NC(=O)C2CC(=O)CCN2C(=O)C(Cc2ccccc2)N(C)C(=O)C2CCCN2C1=O (stereo not drawn)
Response given: False

Challenge: Could you check what this test reported for CCOC(=O)C(CS)NCCN[C@@H](CS)C(=O)OCC (stereo partly drawn) ?
Response given: False

---
Challenge: Dear colleague, could you share the recorded outcome for `COc1ccc(-c2nc3ccc(C4=C(C)CC(=O)NN4)cc3[nH]2)cc1` when you have a moment?
Response given: False

Challenge: Dear all, I need the recorded test outcome for O=C(OCC1OC(OC(=O)c2cc(O)c(O)c(OC(=O)c3cc(O)c(O)c(O)c3)c2)[C@@H](OC(=O)c2cc(O)c(O)c(OC(=O)c3cc(O)c(O)c(O)c3)c2)C(OC(=O)c2cc(O)c(O)c(OC(=O)c3cc(O)c(O)c(O)c3)c2)C1OC(=O)c1cc(O)c(O)c(OC(=O)c2cc(O)c(O)c(O)c2)c1)c1cc(O)c(O)c(OC(=O)c2cc(O)c(O)c(O)c2)c1 (stereo partly drawn) , thank you.
Response given: True
